system: L. major amastigote; test: L. major amastigote assay; format: cell-based; conditions: Leishmania major
Structures can show the parent of a compound that is named as a salt.
READOUT: pEC50
Numbers only, as −log10 of the molar value.

Worked examples follow.
| COMPOUND | READOUT | OBSERVED |
| --- | --- | --- |
| CN1CCCN(S(=O)(=O)c2ccc(-c3ccc4nccc(Nc5ccc(OCc6cccc(F)c6)c(Cl)c5)c4c3)cc2)CC1 | pEC50 | 5.64 |
| Fc1cccc(COc2ccc(Nc3ncnc4ccc(-c5ccc(N6CCCCC6)cc5)cc34)cc2Cl)c1 [Compound 23h] | pEC50 | 5.30 |

Look at each compound and report its pEC50.
1. CN1CCCN(S(=O)(=O)c2ccc(-c3ccc4ccnc(Nc5ccc(OCc6cccc(F)c6)c(Cl)c5)c4c3)cc2)CC1
2. O=S(=O)(c1ccc(-c2ccc3ncnc(Nc4ccc(OCc5cccc(Cl)c5)c(Cl)c4)c3c2)cc1)N1CCOCC1 [Compound 20g, Hydrochloride]

5.66
5.96

List reported pEC50 for each of these compounds:
1. CN1CCCN(S(=O)(=O)c2ccc(-c3ccc4c(Nc5ccc(OCc6cccc(F)c6)c(Cl)c5)ccnc4c3)cc2)CC1
2. CN1CCCN(S(=O)(=O)c2ccc(-c3ccc4c(Nc5ccc(OCc6cccc(F)c6)c(Cl)c5)nncc4c3)cc2)CC1
3. Fc1cccc(COc2ccc(Nc3nncc4ccc(-c5cccc(N6CCOCC6)c5)cc34)cc2Cl)c1

6.06
5.96
5.77

Parameters: items (list). Returns: pEC50 for each item.
1. CN1CCN(S(=O)(=O)c2ccc(-c3ccc4ncnc(Nc5ccc(OCc6cccc(F)c6)c(Cl)c5)c4c3)cc2)CC1 [Compound 10p]
2. Fc1cccc(COc2ccc(Nc3nncc4cc(-c5cccc(N6CCOCC6)c5)ccc34)cc2Cl)c1
3. CN1CCCN(S(=O)(=O)c2ccc(-c3ccc4ncnc(Nc5ccc(OCc6cccc(F)c6)c(Cl)c5)c4c3)cc2)CC1 [Compound 10q]
4. O=S(=O)(c1ccc(-c2ccc3ncnc(Nc4ccccc4)c3c2)cc1)N1CCOCC1 [Compound 20a, Hydrochloride]
5. CS(=O)(=O)c1cccc(-c2ccc3ncnc(Nc4ccc(OCc5cccc(F)c5)c(Cl)c4)c3c2)c1 [Compound 10u]
6. O=C(c1cccc(-c2ccc3ncnc(Nc4ccc(OCc5cccc(F)c5)c(Cl)c4)c3c2)c1)N1CCCCC1 [Compound 23k]
7. COc1cccc(COc2ccc(Nc3ncnc4ccc(-c5ccc(S(=O)(=O)N6CCOCC6)cc5)cc34)cc2Cl)c1 [Compound 20k, Hydrochloride]

1. 5.80
2. 5.66
3. 5.70
4. 5.39
5. 5.33
6. 5.46
7. 4.82

Please state, for each entry, its recorded pEC50.
1. Fc1cccc(COc2ccc(Nc3nccc4cc(-c5cccc(N6CCOCC6)c5)ccc34)cc2Cl)c1
2. COc1ccc(Nc2ncnc3ccc(-c4ccc(S(=O)(=O)N5CCOCC5)cc4)cc23)cc1Cl [Compound 20d, Hydrochloride]
3. CN1CCN(S(=O)(=O)c2ccc(-c3ccc4c(Nc5ccc(OCc6cccc(F)c6)c(Cl)c5)cnnc4c3)cc2)CC1

1: 5.66; 2: 5.32; 3: 5.70

----------
For each entry below, report its EC50 value.
system: T. cruzi; experiment: T. cruzi growth inhibition; format: cell-based, Trypanosoma cruzi
Give bare numbers, in nM.

# example entries with known answers
| COMPOUND | EXPERIMENTAL_SYSTEM | OBSERVED |
| --- | --- | --- |
| Fc1cccc(COc2ccc(Nc3ncnc4ccc(-c5cccc(CN6CCCCC6)c5)cc34)cc2Cl)c1 [Compound 23i] | T. cruzi | 1500 |
| O=S(=O)(c1ccc(-c2ccc3ncnc(Nc4ccc(OCc5cccc(F)c5)c(Cl)c4)c3c2)cc1)N1CCNCC1 [Compound 10s] | T. cruzi | 790 |
| CN1CCN(S(=O)(=O)c2ccc(-c3ccc4ncnc(Nc5ccc(Cl)cc5)c4c3)cc2)CC1 | T. cruzi | 21000 |
| CN1CCCN(S(=O)(=O)c2ccc(-c3ccc4ncc(C#N)c(Nc5ccc(OCc6cccc(F)c6)c(Cl)c5)c4c3)cc2)CC1 | T. cruzi | 90 |
| Fc1cccc(COc2ccc(Nc3ncnc4ccc(-c5ccc(N6CCNCC6)cc5)cc34)cc2Cl)c1 | T. cruzi | 1400 |

Consider the additional compound presented here.
Need EC50 of `CN1CCN(S(=O)(=O)c2ccc(-c3ccc4ncnc(Nc5ccc(OCc6ccccc6)cc5)c4c3)cc2)CC1` , thanks. 9900
